Exercise: for every item that follows, state its recorded UV λmax.
experiment: UV absorption spectrum (λmax, ε) of the merocyanine UV filters; format: physicochemical; settings: in CH3CN/H2O
Give bare numbers, in nm.

Example entries and their recorded answers appear below.
// UV λmax lookup, compound = CCOC(=O)/C(C#N)=C\C=C\N(C)CCC[Si]1(C)O[Si](C)(CCCN(C)/C=C/C=C(/C#N)C(=O)OCC)O[Si](C)(CCCN(C)/C=C/C=C(/C#N)C(=O)OCC)O[Si](C)(CCCN(C)/C=C/C=C(/C#N)C(=O)OCC)O1 (centres unmarked) , result: 381

// UV λmax lookup, compound = CN(/C=C/C=C(C#N)C#N)CCC[Si]1(C)O[Si](C)(CCCN(C)/C=C/C=C(C#N)C#N)O[Si](C)(CCCN(C)/C=C/C=C(C#N)C#N)O[Si](C)(CCCN(C)/C=C/C=C(C#N)C#N)O1 (centres unmarked) , result: 378

// UV λmax lookup, compound = "CC1(C)CC(NCCC[Si](C)(O[Si](C)(C)C)O[Si](C)(C)C)=CC(=C(C#N)C#N)C1" , result: 382

List UV λmax for every entry below, keeping the order given.
1. CCOC(=O)/C(C#N)=C\C=C\N(C)CCC[Si](C)(O[Si](C)(C)C)O[Si](C)(C)C
2. CN(/C=C/C=C(C#N)C#N)CCC[Si](C)(O[Si](C)(C)C)O[Si](C)(C)C

1: 381; 2: 383
